propertyMeasured: melting point

# compoundStructure, melting point
data = [
    ("N#Cc1cnc2cc3ccccc3cc2c1Cl", "253 to 255 °C"),
    ("CCSc1nc2cccc(C(=O)O)c2n1Cc1ccc(-c2ccccc2-c2nc(=O)o[nH]2)cc1", "146 to 148 °C"),
    ("Cc1cccc(-c2ccc3c(ccn3Cc3ccc(C(C)(C)C)cc3)c2)c1", "94 to 95 °C"),
]

Memo: c1ccc(-c2nc(COc3ccc(CCCCn4ccnc4)cc3)co2)cc1 , reported melting point: 113 to 114 °C

Memo: CCOC(=O)C(=O)c1cn(CCN(C)C)c2ccccc12 , reported melting point: 71 to 72 °C

Memo: CC(=O)N1CCC(CCC(=O)c2ccc3c(c2)CCO3)CC1 , reported melting point: 93 to 95 °C

Memo: CC(=O)c1ccc(Oc2ncccc2C(=O)O)cc1 , reported melting point: 184 to 186 °C

Memo: CONS(=O)(=O)c1cccc(Cl)c1 , reported melting point: 72 to 74.5 °C

Memo: CCNC(=O)c1c(Br)ccc(OC)c1[Si](C)(C)C , reported melting point: 200 °C

Memo: Nc1c(OC[C@@H]2CO2)cccc1[N+](=O)[O-] , reported melting point: 107 to 109 °C

Memo: CCOC(=O)C1=Cc2cccc(N3CCCC3=O)c2OCC1 , reported melting point: 64 to 66 °C

###

Catalogue of melting point values

Completed entries (count: 5):
# molecule, valueReported
records = [
    ("Cc1cc2c(CCl)c(CO)c(Cl)nc2cc1Cl", "169 to 170 °C"),
    ("CC(C)(C)c1cc(CCc2ccc(Cl)cc2NC(=O)NC2CCN(Cc3ccccc3)CC2)cc(C(C)(C)C)c1O", "155 to 156 °C"),
    ("O=S(=O)(Nc1cccc(CCOCc2nc(-c3ccc(F)cc3)sc2Br)c1)C(F)(F)F", "84 to 85 °C"),
    ("C#CCN1C(=O)COc2ccc(-n3c(=O)cc(C(F)(F)F)[nH]c3=O)cc21", "> 250 °C"),
    ("CC(C)CCOc1c(-c2ccc(S(C)(=O)=O)cc2)cnn(-c2cccc(Cl)c2)c1=O", "134 to 135 °C"),
]

Memo: Cc1cccc(-c2[nH]c(C(C)C)nc2-c2cccc(-c3ccc(F)cc3)c2)n1 , reported melting point: 83 to 85 °C

Memo: CC(C)(C)N1CC(COc2cccc3c2SCCC3)OC1=O (centres undefined) , reported melting point: 90 °C

Memo: Clc1ccn2ncc(Br)c2n1 , reported melting point: 173 to 174 °C

Memo: COc1nc(C)cnc1NS(=O)(=O)c1ccccc1-c1ccc(CC(C)C)c([N+](=O)[O-])c1 , reported melting point: 114 to 115 °C

###

Catalogue of melting point values

# compound, melting point
data = [
    ("Cc1ccccc1N1CCN(CCn2c(=O)[nH]c3sccc3c2=O)CC1", "191 to 193 °C"),
    ("C=C1SC(=S)N(c2ccc3cc(-c4ccc(OC)c(-c5ccccc5)c4)ccc3c2)C1=O", "266 to 269 °C"),
    ("CC(=Cc1ccc(O)cc1)C(=O)O", "204 to 205 °C"),
]

Memo: Cc1oc(-c2ccccc2)nc1COc1ccc2c(c1)CCC(CC1SC(=O)NC1=O)C2 (stereo not given) , reported melting point: 194 to 195 °C

Memo: N#CN1CCC(=C2c3ccccc3Sc3cccnc32)CC1 , reported melting point: 192 to 193 °C

###

propertyMeasured: melting point (°C)

Completed entries (count: 5):
# compound, valueReported
data = [
    ("CCn1ncc2c(NCC34CC5CC(CC(C5)C3)C4)c3ccccc3nc21", 310),
    ("Cc1cc(-n2cncn2)c2cccc(OCc3c(Cl)ccc(S(=O)(=O)N4CCC[C@H]4C(=O)NCC4CCN(CCCO)CC4)c3Cl)c2n1", 136),
    ("O=C(Cc1ccncn1)c1ccc(Cl)cc1", 110),
    ("Nc1nc(/C(=N/OCC(=O)N2CCCCC2)C(=O)O)cs1", 177),
    ("CC1(C)CC(C(O)CNc2nc(NCc3ccccc3)nc(NCC(O)C3CC(C)(C)NC(C)(C)C3)n2)CC(C)(C)N1 (stereo unspecified)", 88),
]

(a) CN1C(=O)N(CCC(NS(=O)(=O)c2ccc(-c3ccc(Cl)cc3)cc2)C(=O)O)C(=O)C1(C)C (stereo unspecified)
(b) O=S(=O)(Cc1ccccc1Cl)c1nnc(C(F)(F)F)s1
Kindly compare a with b and tell me which has the lower melting point figure. Please reply using the label of the selected record.
a
(a: 43 °C, b: 103 °C)

###

Catalogue of melting point values

# compoundStructure, valueReported
measured = [
    ("O=[N+]([O-])c1ccc(NN=C(c2ccccc2)c2ccccc2)c([N+](=O)[O-])c1", "232 to 234 °C"),
    ("CC1=NCCN1Cc1ccc(CCNC(=O)c2ccc(-c3ccc(Cl)cc3)cc2)cc1", "170 to 172 °C"),
    ("CC(C)CCS(=O)(=O)NC(=O)CCc1cc(C2CC2)nn1Cc1ccc(C(F)(F)F)cc1Cl", "160 to 162 °C"),
    ("CCOC(=O)c1sc(-c2ccc(C#N)cc2)nc1COC(C)=O", "127 °C"),
]

Memo: CCCCCCCCCC/C=C/c1ccccc1/C=C/C(=O)O , reported melting point: 85 to 86 °C

###

Catalogue of melting point values

Completed entries (count: 10):
# compound, melting point
data = [
    ("CC(C)(C)OC(=O)NCC(CNC(=O)OC(C)(C)C)OS(C)(=O)=O", "127 °C"),
    ("O=C(O)CCC(=O)NCc1ccc2c(c1)-c1[nH]nc(-c3ccsc3)c1C2", "235 to 236 °C"),
    ("CCCCOc1ccc(C(=O)Nc2ccc3cc(CN4CCCC4)cnc3c2C)cc1", "161 °C"),
    ("CC(C)(C)NCC(O)COc1ccccc1-c1ccc(=O)[nH]n1 (stereo unspecified)", "162 to 164 °C"),
    ("Cc1ccc(OCC(O)CCCl)cc1 (stereo unspecified)", "62 to 64 °C"),
    ("O=C(CN1CC=C(c2c[nH]c3cc(Cl)ccc23)CC1)Nc1ccccn1", "202 to 204 °C"),
    ("CCCCC(O)CN1CCC2(CC1)CSC1=C(O2)c2ccccc2C(=O)C1=O (stereo unspecified)", "160 to 163 °C"),
    ("CCCCC[C@@H](CNC(=O)Nc1c(OCC)ncnc1N(C)C)c1cccc2c1OCO2", "62 to 64 °C"),
    ("O=C(O)C(O)P(=O)(O)O (stereo unspecified)", "153 to 154 °C"),
    ("CCCCOc1ccc(SCCSc2ccc(OCCCC)cc2)cc1", "102 to 103 °C"),
]

Here is the next item to consider.
Memo: FC(F)COc1cc(NC2=NCC3(CN4CCC3CC4)O2)ncn1 (stereo unspecified) , reported melting point: 83 to 88 °C

###

Catalogue of melting point values

Completed entries (count: 4):
# molecule, melting point
data = [
    ("CCN(C)c1nc2cc(NC(=O)c3c(C(=O)O)cnn3C)ccn2n1", "> 250 °C"),
    ("COC(=O)CCCc1cc2nc(Cl)ccc2n1S(=O)(=O)c1ccc(OC(F)(F)F)cc1", "109 °C"),
    ("CCOC1OC(CO)C(COc2c(C(C)(C)C)cc(SC(C)(C)Sc3cc(C(C)(C)C)c(O)c(C(C)(C)C)c3)cc2C(C)(C)C)O1 (stereo not given)", "60 to 62 °C"),
    ("CC(C)(C)OC(=O)c1ccc(C(=O)N[C@H]2CN3C(=O)N(c4cc(Cl)cc(Cl)c4)C(=O)[C@@]3(Cc3ccc(Br)cc3)C2)cc1", "112 °C"),
]

Memo: C=C1SC(=O)N(c2ccc3cc(-c4cc5c(c(-c6ccncc6)c4)OCO5)ccc3c2)C1=O , reported melting point: 304 to 307 °C

###

Catalogue of melting point values

Completed entries (count: 2):
# compound, melting point
measured = [
    ("COc1cc(-n2cnc3cc(-c4ccc(Cl)cc4)sc3c2=O)ccc1OCC1(OP(=O)(O)O)CC(F)(F)C1", "219 °C"),
    ("CC(C)Oc1cc(-n2c(=O)c(F)c(C(F)(F)F)n(C)c2=O)c(F)cc1Cl", "104 to 107 °C"),
]

Memo: O=S(=O)(Nc1ccc2c(OCc3cccc(Br)c3)cccc2c1)C(F)(F)F , reported melting point: 113 to 115 °C

Memo: CCCC(=O)NCC1(C)Cc2c(C)c(N3CCN(c4ccc(OC)cc4)CC3)c(C)c(C)c2O1 (centres undefined) , reported melting point: 140 to 142 °C

Memo: Nc1ncc(-c2noc(-c3cnn4c(C(F)(F)F)cc(-c5ccc(C(F)(F)F)c(Cl)c5)nc34)n2)cn1 , reported melting point: 279 °C
